The reported numbers originate from patent US20230212554A1.

# target-of-assay: NP of A/California/07/2009(H1N1/H1S) (influenza A virus, NYMC X-181 derived …)
# Sequence (P03466 whole entry): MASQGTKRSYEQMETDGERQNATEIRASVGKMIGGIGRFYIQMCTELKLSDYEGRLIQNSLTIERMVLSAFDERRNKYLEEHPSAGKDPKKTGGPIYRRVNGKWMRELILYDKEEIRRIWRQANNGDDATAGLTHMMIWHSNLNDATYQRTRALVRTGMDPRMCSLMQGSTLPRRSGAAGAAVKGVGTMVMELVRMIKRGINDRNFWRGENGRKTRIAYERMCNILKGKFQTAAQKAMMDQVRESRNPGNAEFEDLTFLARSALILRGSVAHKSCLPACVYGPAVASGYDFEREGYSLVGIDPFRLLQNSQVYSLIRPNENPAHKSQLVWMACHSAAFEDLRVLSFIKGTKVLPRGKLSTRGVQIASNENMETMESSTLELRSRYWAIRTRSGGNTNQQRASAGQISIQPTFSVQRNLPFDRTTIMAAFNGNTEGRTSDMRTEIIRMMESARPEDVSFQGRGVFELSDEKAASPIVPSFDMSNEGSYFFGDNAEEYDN
# procedure-text: sandwich ELISA, capture IgG; NP of lysed virus titrated; HRP-NP16 detection

binder	EC50
NP17 (antibody, V domains shown) VH: EVQLVESGGGLVQPGGSLRLSCAASGFTISGGSIHWVRQAPGKGLEWVASIWPFGGSTFYADSVKGRFTISADTSKNTAYLQMNSLRAEDTAVYYCARFGHGHNVIMDYWGQGTLVTVSS VL: DIQMTQSPSSLSASVGDRVTITCRASQDVGYSVAWYQQKPGKAPKLLISSPGGLYSGVPSRFSGSGSGTDFTLTISSLQPEDFATYYCQQYYDYPVTFGQGTKVEIKR	3.28 nM
NP19 (antibody, V domains shown) VH: EVQLVESGGGLVQPGGSLRLSCAASGFTISSWGIHWVRQAPGKGLEWVAGIGPFWGYTSYADSVKGRFTISADTSKNTAYLQMNSLRAEDTAVYYCARFGVDNYGYMDYWGQGTLVTVSS VL: DIQMTQSPSSLSASVGDRVTITCRASQDVSGWVAWYQQKPGKAPKLLISWSTGLYSGVPSRFSGSGSGTDFTLTISSLQPEDFATYYCQQYFNFPVTFGQGTKVEIKR	5.37 nM
NP7 (antibody, V domains shown) VH: EVQLVESGGGLVQPGGSLRLSCAASGFTISNGGIHWVRQAPGKGLEWVAGIGPYGGFTSYADSVKGRFTISADTSKNTAYLQMNSLRAEDTAVYYCARFYSNYYGYHGVMDYWGQGTLVTVSS VL: DIQMTQSPSSLSASVGDRVTITCRASQDVFGWVAWYQQKPGKAPKLLISYSASLYSGVPSRFSGSGSGTDFTLTISSLQPEDFATYYCQQYFNYPLTFGQGTKVEIKR	2.36 nM
NP4 (antibody, V domains shown) VH: EVQLVESGGGLVQPGGSLRLSCAASGFTISNSSIHWVRQAPGKGLEWVAGIGPSGGYTFYADSVKGRFTISADTSKNTAYLQMNSLRAEDTAVYYCARFHSHNSYYSYSHYGYMDYWGQGTLVTVSS VL: DIQMTQSPSSLSASVGDRVTITCRASQDVGWGVAWYQQKPGKAPKLLISGPSSLYSGVPSRFSGSGSGTDFTLTISSLQPEDFATYYCQQYFNYPITFGQGTKVEIKR	2.11 nM
